The measurements presented in this section are drawn from the supplement of paper PMC10627819.

System: B. subtilis 168;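 also: first quartile when negative (synergy) and third quartile when positive (antagonism)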
Protocol Details: Bliss interaction score (quartile over a dose matrix) (fitness difference); higher = more antagonism (negative = synergy)
Measurement Label: Bliss interaction score
Write the value as a bare number.

Noted for N#CC(C#N)=NNc1cccc(Cl)c1 [CCCP] + O=C(N[C@H](CO)[C@H](O)c1ccc([N+](=O)[O-])cc1)C(Cl)Cl [Chloramphenicol] : its Bliss interaction score reads -0.0662

Then this compound:
Noted for CC(=O)Oc1ccccc1C(=O)O [Acetylsalicylicacid] + CN[C@H](CC(C)C)C(=O)N[C@H]1C(=O)N[C@@H](CC(N)=O)C(=O)N[C@H]2C(=O)N[C@H]3C(=O)N[C@H](C(=O)N[C@H](C(=O)O)c4cc(O)cc(O)c4-c4cc3ccc4O)[C@H](O[C@H]3C[C@](C)(N)[C@@H](O)[C@H](C)O3)c3ccc(c(Cl)c3)Oc3cc2cc(c3O[C@@H]2O[C@H](CO)[C@@H](O)[C@H](O)[C@H]2O[C@H]2C[C@](C)(NCc3ccc(-c4ccc(Cl)cc4)cc3)[C@@H](O)[C@H](C)O2)Oc2ccc(cc2Cl)[C@H]1O [Oritavancin] : its Bliss interaction score reads -0.0215
